The values you see were collected from patent US12441726B2.

# target.under.test: UniProt P51532
# Sequence (P51532 whole entry): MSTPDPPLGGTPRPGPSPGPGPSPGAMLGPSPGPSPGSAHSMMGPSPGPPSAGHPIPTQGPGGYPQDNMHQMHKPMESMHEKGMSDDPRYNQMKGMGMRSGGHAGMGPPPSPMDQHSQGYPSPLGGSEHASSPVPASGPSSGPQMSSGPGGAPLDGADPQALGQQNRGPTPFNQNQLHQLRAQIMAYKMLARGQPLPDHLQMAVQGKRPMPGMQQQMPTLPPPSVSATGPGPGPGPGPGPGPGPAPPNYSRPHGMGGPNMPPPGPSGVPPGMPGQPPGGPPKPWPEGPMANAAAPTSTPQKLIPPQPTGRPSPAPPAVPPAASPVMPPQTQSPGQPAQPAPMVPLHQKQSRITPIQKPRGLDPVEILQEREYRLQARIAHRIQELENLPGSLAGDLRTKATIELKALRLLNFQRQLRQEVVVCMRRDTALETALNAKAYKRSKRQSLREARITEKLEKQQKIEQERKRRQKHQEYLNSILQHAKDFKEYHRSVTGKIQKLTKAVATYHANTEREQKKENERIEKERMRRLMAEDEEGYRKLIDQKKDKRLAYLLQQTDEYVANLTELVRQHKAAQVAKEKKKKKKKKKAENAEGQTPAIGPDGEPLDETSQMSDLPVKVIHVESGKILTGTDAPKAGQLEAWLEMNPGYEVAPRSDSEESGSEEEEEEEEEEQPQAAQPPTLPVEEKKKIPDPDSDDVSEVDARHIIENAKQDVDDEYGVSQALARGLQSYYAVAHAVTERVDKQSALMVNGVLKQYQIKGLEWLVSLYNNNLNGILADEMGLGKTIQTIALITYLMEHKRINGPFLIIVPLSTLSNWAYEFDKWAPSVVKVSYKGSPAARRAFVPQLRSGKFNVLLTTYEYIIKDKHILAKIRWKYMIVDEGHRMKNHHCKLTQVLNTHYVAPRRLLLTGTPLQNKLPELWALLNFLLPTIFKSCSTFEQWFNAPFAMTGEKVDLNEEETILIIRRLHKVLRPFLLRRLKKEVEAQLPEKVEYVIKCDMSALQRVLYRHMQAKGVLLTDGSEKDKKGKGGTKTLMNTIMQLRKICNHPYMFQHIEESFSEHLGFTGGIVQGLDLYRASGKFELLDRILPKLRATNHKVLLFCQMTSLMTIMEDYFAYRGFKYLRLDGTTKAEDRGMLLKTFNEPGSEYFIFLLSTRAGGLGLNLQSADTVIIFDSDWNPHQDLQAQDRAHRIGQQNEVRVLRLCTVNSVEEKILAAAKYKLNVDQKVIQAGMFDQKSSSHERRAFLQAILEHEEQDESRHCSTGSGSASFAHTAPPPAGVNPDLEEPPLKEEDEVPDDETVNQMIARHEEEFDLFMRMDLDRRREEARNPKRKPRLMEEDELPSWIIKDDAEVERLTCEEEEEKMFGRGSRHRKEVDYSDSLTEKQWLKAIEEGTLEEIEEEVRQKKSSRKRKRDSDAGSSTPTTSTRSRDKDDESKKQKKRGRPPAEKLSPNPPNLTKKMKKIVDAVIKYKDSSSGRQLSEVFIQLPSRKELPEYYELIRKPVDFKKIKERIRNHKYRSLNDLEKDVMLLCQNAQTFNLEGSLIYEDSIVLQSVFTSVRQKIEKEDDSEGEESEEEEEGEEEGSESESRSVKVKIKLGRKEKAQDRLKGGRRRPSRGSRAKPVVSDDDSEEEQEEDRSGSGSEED
# method: ATPase catalytic activity assay (ADP-Glo), BRG-1
pIC50: −log10 of the molar value.
readout: pIC50

Test item COc1c(-c2ccc3cnc(CNC(=O)c4ccc5c(c4)[C@](C)(C#N)COC5)cc3n2)ccc2cnn(C)c12 [Compound 491] ; UniProt P51532; reported pIC50 was 6.00 to 6.30

Test item COc1ccncc1-c1ccc2cnc(CNC(=O)c3ccc4c(c3)[C@](C)(C#N)COC4)cc2n1 [Compound 489] ; UniProt P51532; reported pIC50 was 6.00 to 6.30

Test item C[C@@]1(F)COCc2ccc(C(=O)NCc3cc4cc(-c5cccc(N6CCC6)n5)ccc4cn3)cc21 [Compound 368] ; UniProt P51532; reported pIC50 was 6.30 to 7.00

Test item C[C@@]1(F)COCc2ccc(C(=O)NCc3cc4nc(-c5ccnc(N6CCN(C7COC7)CC6)n5)ccc4cn3)cc21 [Compound 292] ; UniProt P51532; reported pIC50 was 6.30 to 7.00

Test item CCn1ccc2c(-c3ccc4cnc(CNC(=O)c5ccc6c(c5)[C@](C)(C#N)COC6)cc4n3)cccc21 [Compound 178] ; UniProt P51532; reported pIC50 was 6.30 to 7.00

Test item C[C@@]1(C#N)COCc2ccc(C(=O)NCc3cc4nc(-c5ccccc5)sc4nn3)cc21 [Compound 242] ; UniProt P51532; reported pIC50 was 6.00 to 6.30

Test item O=C(NCc1cc2nc(-c3cncc(N4CCC4)n3)ccc2cn1)c1cc(F)c2c(c1)[C@@](F)(C(F)F)COC2 [Compound 352] ; UniProt P51532; reported pIC50 was 6.30 to 7.00
